Test: reversal of MRP1-mediated doxorubicin resistance, pilot screen, H69AR cells, doxorubicin co-treatment (AID 601)
Details: H69AR cells, CellTiter-Glo, 72 h; compound alone cytotoxicity; at 10 µM
observation type: viability (%)

INSERT INTO results (compound, reported_value) VALUES
  ('CCCC(C)C1C(C#N)=C(N)Oc2cc(C)oc(=O)c21 (stereo unspecified)', 85.7),
  ('O=C(OCC(=O)c1ccccc1Br)c1ccccn1', 86.8),
  ('O=C(Nc1ccc(Br)c2cccnc12)c1ccc(Cn2cc(Cl)cn2)o1', 87.4),
  ('Cc1cccc(N(C)C(=S)Oc2ccc3ccccc3c2)c1', 97.1),
  ('O=C(CSc1nc(N2CCCCC2)nc(N2CCCCC2)n1)Nc1nccs1', 77.3),
  ('CC1(C)Cc2noc(N)c2C(C)(C)N1OC(=O)c1cccs1', 102);

---

Experiment: 384-well plate pilot, post-Golgi transport modulator project, inhibition of yeast transport mutant growth (AID 636)
Settings: absorbance 615 nm, about 18 h, stronger effect = higher value
observation type: inhibition (%)

INSERT INTO assay_data (compound, units_label, reported_value) VALUES
  ('CCOC(=O)CC(NS(=O)(=O)c1ccc(NC(C)=O)cc1)c1ccc(OCC)cc1 (stereo not drawn)', '%', -7.63),
  ('Cn1c(=O)c2[nH]cnc2n(C)c1=O', '%', -1.3),
  ('COc1ccc(OC)c(NC(=O)CS(=O)(=O)c2ccccc2)c1', '%', -6.3),
  ('CCn1ncc(C2=NOC(C(=O)Nc3ccc4c(c3)OCO4)C2)c1C (stereo not drawn)', '%', -3.97),
  ('CCN(CC)C(=O)C1CCC(CNS(=O)(=O)c2cccc3cccnc23)CC1 (stereo not drawn)', '%', -1.87),
  ('CCCC(CCC)C(=O)NCCN1CCOCC1', '%', -2.34),
  ('Cc1c(C(=O)NCc2ccccn2)oc2ccccc12', '%', -0.92),
  ('Cc1cc(NC(=O)CSc2nc(C3CCCCC3)nc3ccccc23)no1', '%', -0.8),
  ('COc1ccc(CC(=O)NCc2ccccc2)cc1S(=O)(=O)N1CCOCC1', '%', -2.5),
  ('CC(C)OC(=O)CSc1nnnn1-c1ccc2c(c1)OCCO2', '%', -7.03),
  ('O=C(Nc1ccc(Cl)cc1)N1CCSCC1', '%', -1.45),
  ('COc1ccc(OC)c(NC(=O)CCNS(=O)(=O)c2cccs2)c1', '%', -3.6),
  ('CC1=C(C(=O)N2CCOCC2)C(c2ccccc2F)C2=C(CCCC2=O)N1 (stereo not drawn)', '%', -2.88),
  ('Cc1noc(C)c1C(=O)N1CCN(C(=O)c2sc3cc(Cl)ccc3c2Cl)CC1', '%', -5.14),
  ('O=C(NCc1ccco1)C1Cc2ccccc2CN1S(=O)(=O)c1ccccc1F (stereo not drawn)', '%', -1.95),
  ('COc1cc(C(=O)OC(C)CN2CCCC2)cc(OC)c1OC (stereo not drawn)', '%', -3.65),
  ('Cc1noc(C)c1C(=O)Nc1sc(C)c(C)c1C#N', '%', -1.97),
  ('O=C1CN(C(=O)COC(=O)C23CC4CC(CC(O)(C4)C2)C3)c2ccccc2N1', '%', -7.97),
  ('CSc1nc(N2CCOCC2)c2c(c1C#N)CCCCC2', '%', 0.79),
  ('O=C(Nc1ccc(N2CCOCC2)c(Cl)c1)c1ccc(Br)o1', '%', -3.7),
  ('O=C(CN1C(=O)NC2(CCCCC2)C1=O)Nc1ccc(S(=O)(=O)N2CCOCC2)cc1', '%', -3.38),
  ('C=C1[C@@H](C)C2[C@H](Cc3ccccc3)NC(=O)[C@]23OC(=O)CC[C@H](O)CCC[C@H](C)C/C=C/[C@H]3[C@@H]1O (stereo partly drawn)', '%', -0.26),
  ('CC(=O)Nc1ccc(-c2nn[nH]n2)cc1Cl', '%', -1.6);
